Please respond with reported Ki for every item in the list.
# measured on: A1 adenosine receptors (Rattus norvegicus, UniProt P25099)
# Construct: from tissue
# assay explanation: Displacement of specific [3H]R-PIA binding in rat brain membranes
# experimental setup: Table 3; [3H]R-PIA, rat brain membranes, n = 3-5; read-out: rA1 Ki ± S.E.M.
Answers are plain numbers, in µM.

// known answers, use as guide
{"compound": "CCOC(=O)C1=C(C)NC(C2CCCC2)=C(C(=O)OCc2ccccc2)C1C#Cc1ccccc1 (racemic)", "measured on": "A1 adenosine receptors (Rattus norvegicus, UniProt P25099)", "reported measurement": 17.1}
{"compound": "CCOC(=O)C1=C(c2ccccc2)NC(C)=C(C(=O)SCC)C1CC (racemic)", "measured on": "A1 adenosine receptors (Rattus norvegicus, UniProt P25099)", "reported measurement": 35.4}

Below: the item to evaluate.
Ki reported for this compound CCCOC(=O)C1=C(C)NC(c2ccccc2)=C(C(=O)OCC)C1C (racemic) : 1.74

====

# measured on: rat A3 receptors (Rattus norvegicus, UniProt P28647)
# Construct: expressed in transfected cells
# Sequence (P28647 whole entry): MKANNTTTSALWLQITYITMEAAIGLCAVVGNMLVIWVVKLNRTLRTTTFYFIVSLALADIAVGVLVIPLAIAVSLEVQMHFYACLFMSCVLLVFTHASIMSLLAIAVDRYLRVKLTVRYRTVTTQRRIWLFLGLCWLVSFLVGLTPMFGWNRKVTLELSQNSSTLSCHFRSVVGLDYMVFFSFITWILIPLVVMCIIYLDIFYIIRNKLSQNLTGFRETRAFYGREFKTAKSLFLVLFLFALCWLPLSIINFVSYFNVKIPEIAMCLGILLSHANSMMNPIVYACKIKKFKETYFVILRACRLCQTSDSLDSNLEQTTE
# assay explanation: Displacement of specific [125I]AB-MECA binding at rat A3 receptors stably expressed in CHO cells
# experimental setup: Table 4; [125I]AB-MECA, CHO cells, n = 3-5; read-out: rA3 Ki
Response field label: string, one of condition met (Ki strictly below 0.7 µM) or condition not met.

{"compound": "CCSC(=O)c1c(CC)nc(-c2ccccc2)c(C(=O)OCCO)c1CC [Compound 50]", "label class": "condition not met"}
{"compound": "CCCSC(=O)c1c(CC)nc(-c2ccccc2)c(C(=O)OCC)c1CC [Compound 53]", "label class": "condition met"}
{"compound": "CCSC(=O)C1=C(C)NC(c2ccccc2)=C(C(=O)OCc2ccccc2)C1CC (racemic) [Compound 65]", "label class": "condition not met"}
{"compound": "CCCc1c(C(=O)SCC)c(C)nc(-c2ccccc2)c1C(=O)OCC [Compound 38]", "label class": "condition met"}

Please look at the following compound next.
Prompt line: For this compound, is Ki lower than 0.7 µM? CCCC1C(C(=O)SCC)=C(C)NC(c2ccccc2)=C1C(=O)OCC (racemic) [Compound 64]
Response line: condition not met

====

# measured on: human A3 receptors (Homo sapiens, UniProt P0DMS8)
# Construct: expressed in transfected cells
# Sequence (P0DMS8 whole entry): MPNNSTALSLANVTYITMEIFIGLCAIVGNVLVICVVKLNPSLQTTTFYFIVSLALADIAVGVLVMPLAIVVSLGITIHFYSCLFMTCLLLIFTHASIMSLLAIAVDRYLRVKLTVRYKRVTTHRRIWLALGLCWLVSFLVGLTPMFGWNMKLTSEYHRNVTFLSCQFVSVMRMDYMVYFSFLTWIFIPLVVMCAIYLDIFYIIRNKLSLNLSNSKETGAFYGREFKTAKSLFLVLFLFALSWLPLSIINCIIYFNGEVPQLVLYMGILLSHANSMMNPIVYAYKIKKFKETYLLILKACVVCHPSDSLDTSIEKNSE
# assay explanation: Displacement of specific [125I]AB-MECA binding at human A3 receptors expressed in HEK cells, in membranes
# experimental setup: Table 2, compounds 33-58; [125I]AB-MECA, HEK cell membranes, n = 3-4; read-out: hA3 Ki ± S.E.M.
Record form. Attribute: Ki. Fill in for each entry.
One number for each entry, in nM.

See these solved cases before continuing.
{"molecule": "CCSC(=O)c1c(CC)nc(-c2ccccc2)c(C(=O)OCCO)c1CC", "Ki, nM": 188}
{"molecule": "CCCSC(=O)c1c(CC)nc(-c2ccccc2)c(C(=O)OCC)c1CC", "Ki, nM": 15.9}
{"molecule": "CCSC(=O)c1c(C)nc(-c2ccccc2)c(C(=O)OCc2ccccc2)c1CC", "Ki, nM": 2610}
{"molecule": "CCCOC(=O)c1c(-c2ccccc2)nc(CC)c(C(=O)SCC)c1CCC [Compound 49b]", "Ki, nM": 24.5}
{"molecule": "CCOC(=O)c1c(C)nc(C2CCC2)c(C(=O)OCc2ccccc2)c1C#Cc1ccccc1", "Ki, nM": 2410}
{"molecule": "CCOC(=O)c1c(-c2ccccc2)nc(CCOC)c(C(=O)SCC)c1CC", "Ki, nM": 16.8}
{"molecule": "CCOC(=O)c1c(-c2ccccc2)nc(C)c(C(=O)SCCOC)c1CC", "Ki, nM": 165}
{"molecule": "CCCOC(=O)c1c(-c2ccccc2)nc(CC)c(C(=O)SCC)c1CC [Compound 49a]", "Ki, nM": 8.29}

With those in mind, consider the next molecule.
Known value: human A3 receptors (Homo sapiens, UniProt P0DMS8) Ki of the molecule "CCOC(=O)c1c(-c2ccccc2)nc(C2CCC2)c(C(=O)SCC)c1CC" equals 145

====

# measured on: A1 adenosine receptors (Rattus norvegicus, UniProt P25099)
# Construct: from tissue
# assay explanation: Displacement of specific [3H]R-PIA binding in rat brain membranes
# experimental setup: Table 2, compounds 33-58; [3H]R-PIA, rat brain membranes, n = 3-5; read-out: rA1 Ki ± S.E.M.
endpoint name: Ki (µM)
Numbers only, in µM.

Example entries begin here.
{"compound": "CCSC(=O)c1c(CC)nc(-c2ccccc2)c(C(=O)OCCO)c1CC", "reported measurement": 17.4}
{"compound": "CCOC(=O)c1c(C)nc(-c2ccccc2)c(C(=O)OCC)c1CC", "reported measurement": 3.36}
{"compound": "CCOC(=O)c1c(-c2ccccc2)nc(CCOC)c(C(=O)SCC)c1CC", "reported measurement": 10.1}
{"compound": "CCCOC(=O)c1c(-c2ccccc2)nc(CC)c(C(=O)SCC)c1CCC [Compound 49b]", "reported measurement": 18.2}
{"compound": "CCCCc1nc(-c2ccccc2)c(C(=O)OCC)c(CC)c1C(=O)SCC", "reported measurement": 40.3}

State the recorded Ki for every item in the following list.
1. CCOC(=O)c1c(C2CCCC2)nc(CC)c(C(=O)SCC)c1CC
2. CCCSC(=O)c1c(CC)nc(-c2ccccc2)c(C(=O)OCC)c1CC
3. CCOC(=O)c1c(C)nc(-c2ccccc2)c(C(=O)OCc2ccccc2)c1C#Cc1ccccc1

Response line:
1: 55.3; 2: 8.22; 3: 11.6

====

# measured on: human A3 receptors (Homo sapiens, UniProt P0DMS8)
# Construct: expressed in transfected cells
# assay explanation: Displacement of specific [125I]AB-MECA binding at human A3 receptors expressed in HEK cells, in membranes
# experimental setup: Table 2; ratio of affinities rat A1 vs human A3
endpoint name: rA1/hA3

These solved cases illustrate the format of a correct answer.
{"compound": "CCSC(=O)c1c(C)nc(-c2ccccc2)c(C(=O)OCc2ccccc2)c1CC [Compound 39]", "measured on": "human A3 receptors (Homo sapiens, UniProt P0DMS8)", "rA1/hA3": ">40"}
{"compound": "CCOC(=O)c1c(-c2ccccc2)nc(C)c(C(=O)SCCOC)c1CC [Compound 37]", "measured on": "human A3 receptors (Homo sapiens, UniProt P0DMS8)", "rA1/hA3": ">500"}
{"compound": "CCOC(=O)c1c(-c2ccccc2)nc(CC)c(C(=O)SCC)c1CC [Compound 48]", "measured on": "human A3 receptors (Homo sapiens, UniProt P0DMS8)", "rA1/hA3": ">3000"}
{"compound": "CCCc1c(C(=O)SCC)c(C)nc(-c2ccccc2)c1C(=O)OCC [Compound 38]", "measured on": "human A3 receptors (Homo sapiens, UniProt P0DMS8)", "rA1/hA3": ">700"}
{"compound": "CCCOC(=O)c1c(-c2ccccc2)nc(CC)c(C(=O)SCCOC2CCCCO2)c1CCC (stereo not shown) [Compound 13]", "measured on": "human A3 receptors (Homo sapiens, UniProt P0DMS8)", "rA1/hA3": ">20"}
{"compound": "CCCOC(=O)c1c(-c2ccc(F)cc2)nc(CC)c(C(=O)SCC)c1CCC [Compound 27]", "measured on": "human A3 receptors (Homo sapiens, UniProt P0DMS8)", "rA1/hA3": "˜400"}
{"compound": "CCOC(=O)c1c(-c2ccccc2)nc(C2CCC2)c(C(=O)SCC)c1CC [Compound 58]", "measured on": "human A3 receptors (Homo sapiens, UniProt P0DMS8)", "rA1/hA3": ">500"}
{"compound": "CCOC(=O)c1c(-c2ccccc2)nc(C)c(C(=O)SCC)c1CC [Compound 36]", "measured on": "human A3 receptors (Homo sapiens, UniProt P0DMS8)", "rA1/hA3": 340}

Field: rA1/hA3. Fill in for each record below.
1. CCCOC(=O)c1c(-c2ccccc2F)nc(CC)c(C(=O)SCC)c1CCC [Compound 25]
2. CCCSC(=O)c1c(CC)nc(-c2ccccc2)c(C(=O)OCC)c1CC [Compound 53]
3. CCSC(=O)c1c(CC)nc(-c2ccccc2)c(C(=O)OCCO)c1CC [Compound 50]
4. CCCCSC(=O)c1c(CC)nc(-c2cccc(Cl)c2)c(C(=O)OCCC)c1CC [Compound 7]
5. CCOC(=O)c1c(C2CCCC2)nc(CC)c(C(=O)SCC)c1CC [Compound 52]

Response line:
1. 590
2. 520
3. 93
4. 7400
5. 14

====

# measured on: A1 adenosine receptors (Rattus norvegicus, UniProt P25099)
# Construct: from tissue
# Sequence (P25099 1-326): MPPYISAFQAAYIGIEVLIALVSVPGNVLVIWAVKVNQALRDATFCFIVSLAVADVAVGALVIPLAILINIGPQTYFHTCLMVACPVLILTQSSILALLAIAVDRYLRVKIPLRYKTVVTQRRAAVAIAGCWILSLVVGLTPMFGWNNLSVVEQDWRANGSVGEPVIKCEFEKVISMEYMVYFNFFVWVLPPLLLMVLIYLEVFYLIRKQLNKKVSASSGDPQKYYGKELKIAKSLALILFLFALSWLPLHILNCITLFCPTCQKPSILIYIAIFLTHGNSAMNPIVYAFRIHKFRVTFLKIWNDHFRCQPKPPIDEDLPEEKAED
# assay explanation: Displacement of specific [3H]R-PIA binding in rat brain membranes
# experimental setup: Table 3; at 10^−4 M; read-out: rA1 % inhibition (percentage of specific binding displaced)
endpoint name: inhibition at 100 µM
Note to self: number, then unit, no commentary.

Guide cases for inhibition at 100 µM, answers given:
{"compound": "CCOC(=O)C1=C(c2ccccc2)NC(CC)=C(C(=O)SCC)C1CC (racemic)", "measured on": "A1 adenosine receptors (Rattus norvegicus, UniProt P25099)", "reported measurement": "34%"}
{"compound": "CCOC(=O)C1=C(C)NC(C2CC2)=C(C(=O)OCc2ccccc2)C1C#Cc1ccccc1 (racemic)", "measured on": "A1 adenosine receptors (Rattus norvegicus, UniProt P25099)", "reported measurement": "22%"}
{"compound": "CCOC(=O)C1=C(C)NC(c2ccccc2)=C(C(=O)OCC)C1C=O (racemic)", "measured on": "A1 adenosine receptors (Rattus norvegicus, UniProt P25099)", "reported measurement": "26%"}
{"compound": "CCOC(=O)C1=C(C)NC(C2CCC2)=C(C(=O)OCc2ccccc2)C1C#Cc1ccccc1 (racemic)", "measured on": "A1 adenosine receptors (Rattus norvegicus, UniProt P25099)", "reported measurement": "36%"}
{"compound": "CCOC(=O)C1=C(C)NC(c2ccccc2)=C(C(=O)OCC)C1C(OC)OC (racemic)", "measured on": "A1 adenosine receptors (Rattus norvegicus, UniProt P25099)", "reported measurement": "32%"}

Consider the additional compound presented here.
Record CCOC(=O)C1=C(C)NC(C2CCCCC2)=C(C(=O)OCc2ccccc2)C1C#Cc1ccccc1 (racemic) . Reported inhibition at 100 µM: 22%
